B1: TOR1AIP2 (parent)
chain: HHVADAYTSSQKVSPIQIDGAGRT

- Variants of: B1
- protocolText: protein stability index of a GFP-peptide fusion (GPS, HEK-293T) (PSI 1-6); higher = more stable;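 note: lentivirally expressed fusions sorted by FACS into six bins by GFP to DsRed ratio, PSI derived from sequencing read proportions per bin multiplied by bin number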
- setupConditions: c terminus: a fixed tail appended
Given measured protein stability index, output criterion met if it is greater than or equal to 4 and criterion not met if not.

Exercise: Decide: is the reported value of protein stability index for `HHVADAYTSSQKVSPIFIDGAGRT` equal to or greater than 4?
Key: criterion not met

Exercise: Decide: is the reported value of protein stability index for `HHVAQAYTSSQKVSPIQIDGAGRT` equal to or greater than 4?
Key: criterion not met

Exercise: Decide: is the reported value of protein stability index for `HHVADAYTSSQKVSPIQIDGAFRT` equal to or greater than 4?
Key: criterion not met

Exercise: Decide: is the reported value of protein stability index for `HHVADAYTSSQKVSPIQIDGAHRT` equal to or greater than 4?
Key: criterion not met

Exercise: Decide: is the reported value of protein stability index for `HHVADAYRSSQKVSPIQIDGAGRT` equal to or greater than 4?
Key: criterion not met

Exercise: Decide: is the reported value of protein stability index for `HHVADAYTGSQKVSPIQIDGAGRT` equal to or greater than 4?
Key: criterion not met

Exercise: Decide: is the reported value of protein stability index for `HHVAVAYTSSQKVSPIQIDGAGRT` equal to or greater than 4?
Key: criterion not met

Exercise: Decide: is the reported value of protein stability index for `HHWADAYTSSQKVSPIQIDGAGRT` equal to or greater than 4?
Key: criterion not met

Exercise: Decide: is the reported value of protein stability index for `HHFADAYTSSQKVSPIQIDGAGRT` equal to or greater than 4?
Key: criterion not met

Exercise: Decide: is the reported value of protein stability index for `HGVADAYTSSQKVSPIQIDGAGRT` equal to or greater than 4?
Key: criterion met

Exercise: Decide: is the reported value of protein stability index for `HHVGDAYTSSQKVSPIQIDGAGRT` equal to or greater than 4?
Key: criterion met

Exercise: Decide: is the reported value of protein stability index for `HHVADAYTSSQKVSPIQIDGAGHT` equal to or greater than 4?
Key: criterion not met

Exercise: Decide: is the reported value of protein stability index for `RHVADAYTSSQKVSPIQIDGAGRT` equal to or greater than 4?
Key: criterion met

These data points were gathered from the supplement of paper PMC10567573.
